Below, each entry is listed alongside its reported Response - % of Control (percent specifically bound compared to control).
- Tested on: benzodiazepine receptors
- ASSAY_METHOD_TEXT: Flunitrazepam Receptor Binding Assay, FBA Test No. 1 (3H-flunitrazepam displacement, calf caudate)
- MEASUREMENT_CONDITIONS: final concentration 1×10^-6 M, lower = more displacement of 3H-flunitrazepam, 1 µM

Consider the following illustrative entries.
MOLECULE	TEST_VALUE
CC(c1ccccc1)N1CCn2c1nc1ccc(Cl)cc1c2=O (single isomer, unassigned)	15 % of Control
CC1Cn2c(nc3ccc(Cl)cc3c2=O)N1Cc1ccccc1 (stereo not shown)	5 % of Control
O=c1c2cc(Cl)ccc2nc2n1CCN2Cc1ccc(Cl)cc1	5 % of Control

Query molecule follows.
// query Form: Entry = O=c1c2cc(Cl)ccc2nc2n1CCN2Cc1ccccc1 | System = benzodiazepine receptors | Response - % of Control (percent specifically bound compared to control) = ____
// result 1 % of Control
